Tested on: TCR9
Assay: I-Ag7 SABR-II library screen, enrichment score
Type: cell-based, mouse
Conditions: TCR_Mean minus PREDICTED_TCR (from LIB_Mean, SLOPE 0.950453, INTERCEPT 1.21587e-5), PZ47

| SEQ | Enrichment score |
| --- | --- |
| AGGVAVIKAGAATEV | -1.065e-5 |
| AAVEEGIVAGGGVTLL | -0.0001033 |
| AKAAVEEGIVAGGGV | 0.0002844 |
| ALVREGLRNVAAGANP | -9.186e-6 |
| AEKVRNLPAGHGLNAQ | 2.252e-5 |

###

Tested on: TCR4
Assay: I-Ag7 SABR-II library screen, enrichment score
Assay type: cell-based, mouse
Conditions: sheet TCR4-PZ44; ES = TCRObserved - TCRPredicted; TCRPredicted = LIBObserved x SLOPE + INTERCEPT; SLOPE 0.903208, INTERCEPT 2.37527e-5
Reported Enrichment score is given for each of the following sequences.

| SEQ | Enrichment score |
| --- | --- |
| ALVREGLRNVAAGANP | -2.375e-5 |
| AAVEEGIVAGGGVTLL | 3.881e-5 |
| AEKVRNLPAGHGLNAQ | -5.549e-7 |
| AGGVAVIKAGAATEV | 2.046e-5 |
| AKAAVEEGIVAGGGV | -0.0001441 |

###

System: BDC2.5 TCR
Experiment: I-Ag7 SABR-II library screen, enrichment score
Format: cell-based, mouse
Settings: sheet Fig 1F, whole library; independent biological experiment 2 of 8

| SEQ | Enrichment score EXPT2 |
| --- | --- |
| AGGVAVIKAGAATEV | -4.65e-5 |
| AKAAVEEGIVAGGGV | -0.0001132 |
| ALVREGLRNVAAGANP | -1.509e-5 |
| AAVEEGIVAGGGVTLL | -2.818e-5 |
| AEKVRNLPAGHGLNAQ | 2.296e-5 |

###

Reported Enrichment score is given for each of the following sequences.
Tested on: GSE.20D11 TCR
Assay: HLA-DQ8 SABR-II (+ HLA-A2.1 SABR) library screen, enrichment score
Type: cell-based, human
Settings: ES = TCRObserved - TCRPredicted; TCRPredicted = LIBObserved x SLOPE + INTERCEPT; SLOPE 1.10224, INTERCEPT -1.65707e-5
ENDPOINT: Enrichment score

| SEQ | SYSTEM_NAME | ENDPOINT | NUMERIC_VALUE |
| --- | --- | --- | --- |
| APKRPPSAF | GSE.20D11 TCR | Enrichment score | 2.7496e-5 |
| AASKERSGVSL | GSE.20D11 TCR | Enrichment score | 3.541e-5 |
| CDGERPTLAFLQDVM | GSE.20D11 TCR | Enrichment score | -0.0002437 |
| AAPSVFIFPPSDEQLK | GSE.20D11 TCR | Enrichment score | -0.0003017 |

###

System: TCR11
Assay: I-Ag7 SABR-II library screen, enrichment score
Type: cell-based, mouse
Settings: TCR11; TCR_Mean minus PREDICTED_TCR (from LIB_Mean, SLOPE 0.869084, INTERCEPT 3.21267e-5); PZ51
Reported Enrichment score is given for each of the following sequences.
ENDPOINT: Enrichment score

| SEQ | ENDPOINT | NUMERIC_VALUE |
| --- | --- | --- |
| ALVREGLRNVAAGANP | Enrichment score | -3.213e-5 |
| AKAAVEEGIVAGGGV | Enrichment score | 0.0001401 |
| AEKVRNLPAGHGLNAQ | Enrichment score | 0.0002492 |
| AGGVAVIKAGAATEV | Enrichment score | -2.692e-5 |
| AAVEEGIVAGGGVTLL | Enrichment score | 9.192e-5 |

###

Reported ES for each dropout, LOO_TCR37 is given for each of the following sequences.
Tested on: TCR37
Assay: Multiplexed TCR/library dropout screen, mean ES
Type: cell-based, mouse
Conditions: Avg ES for all the replicates that contain that TCR (TCR37)
ENDPOINT: ES for each dropout, LOO_TCR37

| SEQ | SYSTEM_NAME | ENDPOINT | NUMERIC_VALUE |
| --- | --- | --- | --- |
| AAVEEGIVAGGGVTLL | TCR37 | ES for each dropout, LOO_TCR37 | 2.247e-6 |
| ALVREGLRNVAAGANP | TCR37 | ES for each dropout, LOO_TCR37 | -1.224e-5 |
| AEKVRNLPAGHGLNAQ | TCR37 | ES for each dropout, LOO_TCR37 | -2.944e-5 |
| AGGVAVIKAGAATEV | TCR37 | ES for each dropout, LOO_TCR37 | 1.413e-5 |
| AKAAVEEGIVAGGGV | TCR37 | ES for each dropout, LOO_TCR37 | 7.483e-6 |

###

System: BDC2.5 TCR
Assay: I-Ag7 SABR-II library screen, enrichment score
Format: cell-based, mouse
Details: sheet Fig 1F, whole library; independent biological experiment 8 of 8

| SEQ | Enrichment score EXPT8 |
| --- | --- |
| AGGVAVIKAGAATEV | -2.822e-5 |
| AAVEEGIVAGGGVTLL | -0.0001409 |
| ALVREGLRNVAAGANP | -2.71e-5 |
| AEKVRNLPAGHGLNAQ | 9.25e-5 |
| AKAAVEEGIVAGGGV | 1.023e-7 |

###

Reported Enrichment score EXPT1 is given for each of the following sequences.
Tested on: BDC2.5 TCR
Assay: I-Ag7 SABR-II library screen, enrichment score
Type: cell-based, mouse
Conditions: sheet Fig 1F, whole library; independent biological experiment 1 of 8

| SEQ | Enrichment score EXPT1 |
| --- | --- |
| AKAAVEEGIVAGGGV | -8.351e-5 |
| ALVREGLRNVAAGANP | -2.732e-5 |
| AGGVAVIKAGAATEV | 5.397e-5 |
| AAVEEGIVAGGGVTLL | -9.793e-5 |
| AEKVRNLPAGHGLNAQ | 1.2173e-5 |

###

Reported %GFP+CD69+ cells of SABR-NFAT-GFP-Jurkat cells is given for each of the following sequences.
Tested on: Jurkat cells, No TCR
Test: Single SABR-II co-incubation, background without TCR
Assay type: cell-based, human
Conditions: No TCR; Fig 5C; technical replicate 1
Experimental: We performed systematic screening of the cloned TCRs against the I-Ag7 SABR-II library. Several TCRs along with a positive control (such as BDC2.5 or 4-8Ins) were screened individually against the library for each sort (Extended Data Fig. 6a and Supplementary Table 4). […] Co-incubation assays that yielded a GFP signal higher than that obtained in assays with no TCR were determined to be positive and the epitopes deemed true cognate ligands (Extended Data Fig. 6b,c). […]
ENDPOINT: %GFP+CD69+ cells of SABR-NFAT-GFP-Jurkat cells (%)

| SEQ | NUMERIC_VALUE |
| --- | --- |
| LQTLALNAARDP | 0.73 |
| VEQLELGAKQEEKE [14-mer hybrid insulin peptide spanning the fusion junction, TCR3 hit] | 1.47 |
| EQLELGGKADEFPD [14-mer hybrid insulin peptide spanning the fusion junction, TCR3 hit] | 11.2 |
| EQLELGGHIEDSGE [14-mer hybrid insulin peptide spanning the fusion junction, TCR3 hit] | 14.1 |
| QLELGGSKDSDKGQ [14-mer hybrid insulin peptide spanning the fusion junction, TCR3 hit] | 9.03 |
| VEQLELGSGKEVKG [14-mer hybrid insulin peptide spanning the fusion junction, TCR3 hit] | 3.79 |
| QVEQLELNAARDPN [14-mer hybrid insulin peptide spanning the fusion junction, TCR3 hit] | 2.19 |

###

Reported %GFP+CD69+ cells of SABR-NFAT-GFP-Jurkat cells is given for each of the following sequences.
Test system: TCR5
Experiment: Single SABR-II co-incubation, NFAT-GFP Jurkat
Type: cell-based, mouse
Details: TCR 5; Ext. Data Fig. 6C; 18-20 hr; technical replicate 2
Experimental: We performed systematic screening of the cloned TCRs against the I-Ag7 SABR-II library. Several TCRs along with a positive control (such as BDC2.5 or 4-8Ins) were screened individually against the library for each sort (Extended Data Fig. 6a and Supplementary Table 4). […] Co-incubation assays that yielded a GFP signal higher than that obtained in assays with no TCR were determined to be positive and the epitopes deemed true cognate ligands (Extended Data Fig. 6b,c). […]
ENDPOINT: %GFP+CD69+ cells of SABR-NFAT-GFP-Jurkat cells (%)

| SEQ | NUMERIC_VALUE |
| --- | --- |
| RLGLWSRMDQLAKELTAE | 56 |
| EKAHHAIWARMDAKK | 39.6 |
| SRLGLWSRMDQLAKELTAE | 71.6 |
| EKAHVPIWARMDAKK | 30.2 |
| RRAGDLQTLWSRMDARR | 18.8 |
| EKAHHPIWARMDAKK | 35.1 |
| SRLGLWVRMEQLAKELTAE | 19.4 |
| EKAHLAIWARMDAKK | 77.9 |
